- systemUnderTest: Histone deacetylase-like amidohydrolase (Alcaligenes sp. (strain DSM 11172) (Bordetella sp. (strain FB188)))
- testDetails: Inhibition of Bordetella FB188 HDAH using Boc-L-Lys(acetyl)-MCA as substrate by fluorogenic enzymatic assay
pKd: −log10 of the molar value.
Form field: pKd (one value per entry).
measurementName: pKd

- moleculeSmiles: "O=C(NO)C(F)(F)C(F)(F)C(F)(F)C(F)(F)C(F)(F)C(F)(F)C(=O)Nc1ccc(Cl)cc1"
  assayValue: 6.68
- moleculeSmiles: "Cc1ccc(NC(=O)C(F)(F)C(F)(F)C(F)(F)C(F)(F)C(F)(F)C(F)(F)C(=O)NO)cc1C"
  assayValue: 6.59
- moleculeSmiles: "O=C(NO)C(F)(F)C(F)(F)C(F)(F)C(F)(F)C(F)(F)C(F)(F)C(=O)Nc1cccc(-c2ccccc2)c1"
  assayValue: 6.35
- moleculeSmiles: "O=C(NO)C(F)(F)C(F)(F)C(F)(F)C(F)(F)C(F)(F)C(F)(F)C(=O)Nc1ccc(I)cc1"
  assayValue: 6.41

###

Form field: pKd (one value per entry).
- systemUnderTest: Histone deacetylase-like amidohydrolase (Alcaligenes sp. (strain DSM 11172) (Bordetella sp. (strain FB188)))
- Sequence (Q70I53 whole entry): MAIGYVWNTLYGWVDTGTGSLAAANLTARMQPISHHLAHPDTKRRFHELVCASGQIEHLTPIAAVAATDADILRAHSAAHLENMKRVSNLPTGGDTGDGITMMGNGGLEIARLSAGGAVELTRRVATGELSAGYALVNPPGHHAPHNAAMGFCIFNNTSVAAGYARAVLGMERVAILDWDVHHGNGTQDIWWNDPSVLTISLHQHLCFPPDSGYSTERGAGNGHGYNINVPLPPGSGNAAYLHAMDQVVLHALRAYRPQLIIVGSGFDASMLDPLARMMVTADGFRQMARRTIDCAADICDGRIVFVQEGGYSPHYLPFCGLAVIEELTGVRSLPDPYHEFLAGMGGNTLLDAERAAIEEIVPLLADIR
- testDetails: Inhibition of Bordetella FB188 HDAH using Boc-L-Lys(acetyl)-MCA as substrate by fluorogenic enzymatic assay
pKd: −log10 of the molar value.
measurementName: pKd

- moleculeSmiles: "CCc1cccc(NC(=O)C(F)(F)C(F)(F)C(F)(F)C(F)(F)C(F)(F)C(F)(F)C(=O)NO)c1"
  measurementName: "pKd"
  assayValue: 6.72
- moleculeSmiles: "O=C(NO)C(F)(F)C(F)(F)C(F)(F)C(F)(F)C(F)(F)C(F)(F)C(=O)Nc1ccccc1-c1ccccc1"
  measurementName: "pKd"
  assayValue: 6.07
- moleculeSmiles: "O=C(NO)C(F)(F)C(F)(F)C(F)(F)C(F)(F)C(F)(F)C(F)(F)C(=O)Nc1ccccc1"
  measurementName: "pKd"
  assayValue: 6.27
- moleculeSmiles: "O=C(NO)C(F)(F)C(F)(F)C(F)(F)C(F)(F)C(F)(F)C(F)(F)C(=O)Nc1cccc2cc3ccccc3cc12"
  measurementName: "pKd"
  assayValue: 6.13

###

- systemUnderTest: Histone deacetylase 8 (Homo sapiens, UniProt Q9BY41)
- Sequence (Q9BY41 whole entry): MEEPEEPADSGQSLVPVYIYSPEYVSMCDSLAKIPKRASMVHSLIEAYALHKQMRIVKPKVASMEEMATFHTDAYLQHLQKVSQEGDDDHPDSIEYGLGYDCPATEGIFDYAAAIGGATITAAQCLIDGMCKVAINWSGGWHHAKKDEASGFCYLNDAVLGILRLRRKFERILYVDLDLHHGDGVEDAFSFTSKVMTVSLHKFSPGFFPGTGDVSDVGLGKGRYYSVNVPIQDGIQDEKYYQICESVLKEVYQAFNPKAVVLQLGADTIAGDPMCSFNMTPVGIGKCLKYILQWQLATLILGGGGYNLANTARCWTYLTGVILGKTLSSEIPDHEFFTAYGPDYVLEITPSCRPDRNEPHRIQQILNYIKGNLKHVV
- testDetails: Inhibition of recombinant human HDAC8 using Boc-L-Lys(trifluoroacetyl)-MCA as substrate by fluorogenic enzymatic assay
pKd: −log10 of the molar value.
Form field: pKd (one value per entry).

- moleculeSmiles: "N#Cc1ccc(NC(=O)C(F)(F)C(F)(F)C(F)(F)C(F)(F)C(F)(F)C(F)(F)C(=O)NO)cc1"
  rel: "="
  pKd: 4.46
- moleculeSmiles: "CCc1cccc(NC(=O)C(F)(F)C(F)(F)C(F)(F)C(F)(F)C(F)(F)C(F)(F)C(=O)NO)c1"
  rel: "="
  pKd: 4.89
- moleculeSmiles: "O=C(NO)C(F)(F)C(F)(F)C(F)(F)C(F)(F)C(F)(F)C(F)(F)C(=O)Nc1ccc2ccc3cccc4ccc1c2c34"
  rel: "="
  pKd: 4.33
- moleculeSmiles: "O=C(NO)C(F)(F)C(F)(F)C(F)(F)C(F)(F)C(F)(F)C(F)(F)C(=O)Nc1cccc(-c2ccccc2)c1"
  rel: "="
  pKd: 4.22
- moleculeSmiles: "O=C(NO)C(F)(F)C(F)(F)C(F)(F)C(F)(F)C(F)(F)C(F)(F)C(=O)Nc1cc2ccccc2c2ccccc12"
  rel: "="
  pKd: 5.28
- moleculeSmiles: "O=C(Nc1ccccc1)C(F)(F)C(F)(F)C(F)(F)C(F)(F)C(F)(F)C(F)(F)C(=O)Nc1ccccc1"
  rel: "<"
  pKd: 4.00
- moleculeSmiles: "O=C(NO)C(F)(F)C(F)(F)C(F)(F)C(F)(F)C(F)(F)C(F)(F)C(=O)Nc1cccc2cc3ccccc3cc12"
  rel: "="
  pKd: 5.85
- moleculeSmiles: "O=C(NO)C(F)(F)C(F)(F)C(F)(F)C(F)(F)C(F)(F)C(F)(F)C(=O)Nc1ccc2ccccc2c1"
  rel: "="
  pKd: 4.31
